Parameter pIC50: see the listing below.
molecular target: KRas G12D (Homo sapiens (Human), UniProt P01116, G12D); assay: KRas G12D Binding Assay (TR-FRET displacement of Cy5 labelled tracer); conditions: GDP-loaded KRAS G12D (amino acids 1:169), 60 minute incubation at 22° C.
Sequence (P01116 other isoform, or with tags, fused parts or gaps G12D): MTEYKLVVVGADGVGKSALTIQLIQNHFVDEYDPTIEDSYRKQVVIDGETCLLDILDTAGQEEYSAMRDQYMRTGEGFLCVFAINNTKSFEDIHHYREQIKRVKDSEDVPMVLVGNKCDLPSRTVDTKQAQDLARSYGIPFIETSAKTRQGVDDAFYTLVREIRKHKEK
The scale used: pIC50 is minus the common logarithm of the concentration in molar units.

| COMPOUND | MEASURED_ON | pIC50 |
| --- | --- | --- |
| COc1ccc(CCOc2nc(N3C[C@H]4CC[C@@H](C3)N4)c3cnc(-c4cccc5cccc(Cl)c45)c(F)c3n2)cn1 | KRas G12D (Homo sapiens (Human), UniProt P01116, G12D) | 5.10 |

If you can, please state the reported pIC50 value of Fc1c(-c2cccc3cccc(Cl)c23)ncc2c(N3C[C@H]4CC[C@@H](C3)N4)nc(OC[C@@H]3CCCN3Cc3ccccc3)nc12 .
6.03

Entry CC(C)n1ccnc1CCOc1nc(N2C[C@H]3CC[C@@H](C2)N3)c2cnc(-c3cc(O)cc4ccccc34)c(F)c2n1 : reported pIC50 = ?
7.49

Endpoint output: pIC50 of Nc1ccc(CCOc2nc(N3C[C@H]4CC[C@@H](C3)N4)c3cnc(-c4cccc5cccc(Cl)c45)c(F)c3n2)cn1 . Value?
6.05

Consider the compound CC1CCc2cccc(-c3ncc4c(N5CC6CCC(C5)N6)nc(OC[C@@H]5CCCN5C)nc4c3F)c21 (stereo partly shown) and give its measured pIC50.
7.19

Would you kindly share the measured pIC50 for Fc1c(-c2cnccc2C(F)(F)F)ncc2c(N3CC4CCC(C3)N4)nc(OC[C@@]34CCCN3C[C@H](F)C4)nc12 (stereo in doubt) ?
5.59

What does the record list as pIC50 for CC1(N)CN(c2nc(N3C[C@H]4CC[C@@H](C3)N4)c3cnc(-c4cccc5cccc(Cl)c45)c(F)c3n2)C1 ?
6.18

Give the measured pIC50 of Oc1cc(-c2ncc3c(N4C[C@H]5CC[C@@H](C4)N5)nc(OCC45CCCN4CCC5)nc3c2F)c2c(F)cccc2c1 [Example 367, tris(2,2,2-trifluoroacetate)] .
9.15

Given the entry Cn1ccnc1CCNc1nc(N2C[C@H]3CC[C@@H](C2)N3)c2cnc(-c3cc(O)cc4ccccc34)c(F)c2n1 , report its measured pIC50.
6.55

I am curious: what pIC50 value has been reported for Cn1cc(CCOc2nc(N3C[C@H]4CC[C@@H](C3)N4)c3cnc(-c4cccc5cccc(Cl)c45)c(F)c3n2)cn1 ?
5.64

Consider the compound CCc1cccc2cncc(-c3ncc4c(N5CC6CCC(C5)N6)nc(OCC56CCCN5C[C@H](F)C6)nc4c3F)c12 (mixture of isomers) and give its measured pIC50.
7.99

---

Biological target: KRas G12D (Homo sapiens (Human), UniProt P01116, G12D)
Assay: KRas G12D Binding Assay (TR-FRET displacement of Cy5 labelled tracer)
Details: GDP-loaded KRAS G12D (amino acids 1:169), 60 minute incubation at 22° C.
Procedure: After a 60 minute incubation at 22° C., the reaction was measured using a PerkinElmer EnVision multimode plate reader via TR-FRET dual wavelength detection, and the percent of control (POC) calculated using a ratiometric emission factor. […] The POC values were fit to a 4-parameter logistic curve and the IC50 value was determined as the concentration where the curve crosses 50 POC. ND stands for “not determined.”
Hi! Just check whether IC50 is below 300 nM. Below gives Y, equal or above gives N.

| COMPOUND | LABEL |
| --- | --- |
| CC1CCCc2cccc(-c3ncc4c(N5CC6CCC(C5)N6)nc(OC[C@@H]5CCCN5C)nc4c3F)c21 (stereo partly shown) | Y |
| C[C@H]1C[C@@H]1c1ccccc1-c1ncc2c(N3C[C@H]4CC[C@@H](C3)N4)nc(OCC34CCCN3CCC4)nc2c1F | Y |
| COCc1cccc2cccc(-c3ncc4c(N5C[C@H]6CC[C@@H](C5)N6)nc(OC[C@@]56CCCN5C[C@H](F)C6)nc4c3F)c12 | Y |
| NC1(COc2nc(N3C[C@H]4CC[C@@H](C3)N4)c3cnc(-c4cccc5cccc(Cl)c45)c(F)c3n2)CCCCC1 | N |

Check if IC50 falls below 300 nM for Fc1c(-c2cccc(C(F)(F)F)c2C(F)(F)F)ncc2c(N3C[C@H]4CC[C@@H](C3)N4)nc(OCC34CCCN3CCC4)nc12 .
Y

Strictly below 300 nM: is that where IC50 of C[C@H](CN(C)C)Oc1nc(N2C[C@H]3CC[C@@H](C2)N3)c2cnc(-c3cc(O)cc4ccccc34)c(F)c2n1 sits?
N

Threshold test, IC50 < 300 nM: Cc1c(Cl)cccc1-c1ncc2c(N3C[C@H]4CC[C@@H](C3)N4)nc(OCC34CCCN3CCC4)nc2c1F
Y

Decide: IC50 of CNc1c(F)cccc1-c1ncc2c(N3C[C@H]4CC[C@@H](C3)N4)nc(OCC34CCCN3CCC4)nc2c1F strictly below 300 nM?
N

Consider the compound CC(C)c1c(Cl)cc(O)cc1-c1ncc2c(N3C[C@H]4CC[C@@H](C3)N4)nc(OC[C@@]34CCCN3C[C@H](F)C4)nc2c1F . Is its IC50 strictly less than 300 nM?
Y

For Fc1c(-c2cccc3cccc(C4CC4)c23)ncc2c(N3C[C@H]4CC[C@@H](C3)N4)nc(OCC34CCCN3CCC4)nc12 , is the recorded IC50 below the cut-off of 300 nM?
Y

Lab note: confirm whether the reported IC50 for this compound is below 300 nM, equality not counting. compound: CN1C[C@H](NC(=O)c2cccc(S(=O)(=O)F)c2)C[C@H]1COc1nc(N2C[C@H]3CC[C@@H](C2)N3)c2cnc(-c3cccc4cccc(Cl)c34)c(F)c2n1 [Example 211, tris(2,2,2-trifluoroacetate)]
Y

Does the reported IC50 of N=C(N)NCCCOc1nc(N2CC3CCC(C2)N3)c2cnc(-c3cccc4cccc(Cl)c34)c(F)c2n1 stay below 300 nM?
Y

Lab note: IC50 threshold 300 nM. Does this compound come in strictly under it? C#Cc1cccc2cccc(-c3ncc4c(N5C[C@H]6CC[C@@H](C5)N6)nc(OC[C@@H]5CCCN5C)nc4c3F)c12
Y

I'd appreciate it if you could check whether Cc1cccc(-c2ncc3c(N4C[C@H]5CC[C@@H](C4)N5)nc(OCC45CCCN4CCC5)nc3c2F)c1Cl has IC50 smaller than 300 nM.
Y

Is IC50 strictly under 300 nM for the entry CC(C)c1ccncc1-c1ncc2c(N3C[C@H]4CC[C@@H](C3)N4)nc(OCC34CCCN3CCC4)nc2c1F ?
Y

Below 300 nM on IC50? Entry CN1CC[C@H](Oc2cccc(S(=O)(=O)F)c2)[C@H]1COc1nc(N2C[C@H]3CC[C@@H](C2)N3)c2cnc(-c3cccc4cccc(Cl)c34)c(F)c2n1 [Example 210, tris(2,2,2-trifluoroacetate)]
N

A record lists CNc1nc(N2CC3CCC(C2)N3)c2cnc(-c3cc(O)cc4ccccc34)c(F)c2n1 . Is its IC50 below 300 nM?
N

Find out if reported IC50 for Fc1c(-c2cccc3cccc(Cl)c23)ncc2c(N3CC4CCC(C3)N4)nc(OC[C@@]34CCCN3C[C@H](F)C4)nc12 (stereo in doubt) is less than 300 nM
Y

Is IC50 of Oc1cc(-c2ncc3c(N4C[C@H]5CC[C@@H](C4)N5)nc(OCC(F)(F)C(F)F)nc3c2F)c2ccccc2c1 strictly below 300 nM?
N

Is IC50 of CCc1cccc2cc(O)cc(-c3ncc4c(N5C[C@H]6CC[C@@H](C5)N6)ncnc4c3F)c12 strictly below 300 nM?
Y

Strictly below 300 nM: is that where IC50 of CN1CCC[C@H]1COc1nc(N2C[C@H]3CC[C@@H](C2)N3)c2cnc(-c3cccc4cccc(Cl)c34)cc2n1 sits?
N

Hello, is IC50 of the following compound strictly smaller than 300 nM? Fc1c(-c2cccc3cccc(OC(F)F)c23)ncc2c(N3C[C@H]4CC[C@@H](C3)N4)nc(OCC34CCCN3CCC4)nc12
Y

---

Biological target: KRas G12D (Homo sapiens (Human), UniProt P01116, G12D)
Experiment: KRas G12D Binding Assay (TR-FRET displacement of Cy5 labelled tracer)
Conditions: GDP-loaded KRAS G12D (amino acids 1:169), 60 minute incubation at 22° C.
Experimental: After a 60 minute incubation at 22° C., the reaction was measured using a PerkinElmer EnVision multimode plate reader via TR-FRET dual wavelength detection, and the percent of control (POC) calculated using a ratiometric emission factor. […] The POC values were fit to a 4-parameter logistic curve and the IC50 value was determined as the concentration where the curve crosses 50 POC. ND stands for “not determined.”
QUANTITY: IC50 (nM)
Could you give me the number in nM? Just the number is fine.

| COMPOUND | MEASURED_ON | UNITS_LABEL | VALUE |
| --- | --- | --- | --- |
| O[C@@H]1C[C@@H]2CN(c3nc(N4CCC4)nc4c(F)c(-c5cccc6cccc(Cl)c56)ncc34)C[C@H]1N2 [Example 152] | KRas G12D (Homo sapiens (Human), UniProt P01116, G12D) | nM | 2650 |
| Cc1cccnc1CCOc1nc(N2C[C@H]3CC[C@@H](C2)N3)c2cnc(-c3cc(O)cc4ccccc34)c(F)c2n1 [Example 6] | KRas G12D (Homo sapiens (Human), UniProt P01116, G12D) | nM | 434 |
| CC(C)c1ncccc1-c1ncc2c(N3C[C@H]4CC[C@@H](C3)N4)nc(OCC34CCCN3CCC4)nc2c1F [Example 307] | KRas G12D (Homo sapiens (Human), UniProt P01116, G12D) | nM | 3160 |
| CN(C)CCOc1nc(N2C[C@H]3CC[C@@H](C2)N3)c2cnc(-c3cccc4cccc(Cl)c34)c(F)c2n1 [Example 107] | KRas G12D (Homo sapiens (Human), UniProt P01116, G12D) | nM | 2120 |
| Cc1c(-c2cc(O)cc3ccccc23)ncc2c(N3C[C@H]4CC[C@@H](C3)N4)nc(OC[C@@H]3CCCN3C)nc12 [Example 190] | KRas G12D (Homo sapiens (Human), UniProt P01116, G12D) | nM | 64.1 |

We now examine a further compound.
Consider the compound Nc1nc(N2CC3CCC(C2)N3)c2cnc(-c3cc(O)cc4ccccc34)c(F)c2n1 [Example 182] and give its measured IC50.
269
